# Method: NCI Yeast Anticancer Drug Screen. Data for the sgs1 mgt1 strain (AID 161);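 also: 0% = growth of cultures given vehicle only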
# Condition: S. cerevisiae sgs1 mgt1 strain, at 50.0 µM, active compounds read high
The panel holds about 79,000 compounds, 15% with a hit somewhere; the sample as a whole holds those more often.
growth inhibition values, listed per item
Readout Type: growth inhibition (%)

compound=NNc1cccc(Cl)n1 numeric_readout=-5.5
compound=O=C(O)CSc1ncccc1[N+](=O)[O-] numeric_readout=-6.05
compound=N#Cc1ccc(CCc2ccc(Cl)cc2)cc1 numeric_readout=-6.9
compound=CCOC(=O)CNc1nc(Cl)nc(NCC(=O)OCC)n1 numeric_readout=-0.05
compound=CC(=O)C[n+]1ccccc1Oc1ccccc1 numeric_readout=4.25
compound=COc1cccc(Br)c1OC numeric_readout=20.8
compound=O=[N+]([O-])c1ccc(-c2cccc3ccccc23)c([N+](=O)[O-])c1 numeric_readout=17.1
compound=NNC(=O)c1ccc(-c2ccc[nH]2)[nH]1 numeric_readout=-20.9
compound="CC(Br)CCc1ccccc1Br (centres undefined)" numeric_readout=-2.95
